- Tested on: SNB-19 CNS
- Run description: NCI-60 one-dose screen, 48 h (100 = growth as untreated, 0 = no growth, -100 = all killed)
- Test conditions: 10 µM
- Method: Growth inhibition of the SNB-19 human tumor cell line is measured as a screen for anti-cancer activity. Cells are grown in 96 well plates and exposed to the test compound for 48 hours. Compounds are tested at a single concentration, which is 10^-5 M for most compounds. The reported endpoint is percent growth (GI% or GIPRCNT), where numbers from 0 - 100% represent growth inhibition, and numbers from -100% - 0 represent cell death. For example, a value of 40 represents 60% growth inhibition. […]
About 83,000 compounds went through this panel and 20% of them were active in at least one assay; those are over-represented in the sample as a whole.
Property measured: growth (%)
A number alone suffices; assume %.

These recorded examples may help you get a feel for the data.
Compound	growth, %
OCC1OC(n2cnc3c(N/N=C\c4ccccn4)ncnc32)C(O)C1O (stereo unspecified)	34.5
O=C(Nc1cccc(-n2cc(-c3ccncc3)c(-c3ccc(O)c(Cl)c3)n2)c1)Nc1cccc(C(F)(F)F)c1	32.2
CSc1nc(=O)n(Cc2ccc(Cl)cc2)c(=O)[nH]1	108

[in] Need growth, item N#Cc1cccc(OCc2nc(N)nc(N)c2-c2ccc(Cl)c(Cl)c2)c1
[out] 47.1

[in] Param item: COc1ccc(/C=C2/CN(CCC#N)C/C(=C\c3ccc(OC)cc3)C2=O)cc1
[out] 59.6

[in] Query O=[N+]([O-])c1ccc(Oc2cccnc2)c([N+](=O)[O-])c1 next
[out] 106

[in] Then this compound: COc1cc(C(=O)/C=C/c2cc(-c3cc(OC)c(OC)c(OC)c3)n[nH]2)cc(OC)c1OC
[out] 55.4

[in] Let us now turn to c1ccc(CSc2nnc3c4c5c(sc4nc(-c4cccnc4)n23)CCCCCC5)cc1
[out] 46.5

[in] Ok, now S=C1SCC(c2ccccc2)S1 (stereo unspecified)
[out] 97.8

[in] What do you get for O=C(Cc1csc2nc(-c3ccc(Cl)cc3)cn12)N/N=C/c1ccccc1O ?
[out] 60.8

[in] Another compound: COc1cc(-c2nc(Nc3nc4ccccc4s3)[nH]c(=O)c2C#N)cc(OC)c1O
[out] 96.1

====

- Tested on: PC-3 prostate
- Run description: NCI-60 one-dose screen, 48 h
- Test conditions: 10 µM
Compounds without any hit were thinned out: in the full panel of roughly 83,000, 20% have a hit. Calls of active or inactive are those of the source. Rule for the calls: active = growth percent below 10; inactive = the rest.
Outcomes you can answer with include only these: active, inactive

Smiles string	Group
COc1ccc2c(c1)O/C(=C\c1ncc([N+](=O)[O-])n1C)C2=O	active

[in] Tell me the assay call for COc1cc(Cc2cc(-c3ccc(Cl)cc3)n[nH]c2=O)ccc1O please.
[out] inactive

[in] Now consider CC(=O)n1c(-c2ccc(Cl)c(Cl)c2)cn(-c2ccc(Cl)cc2)c1=O .
[out] active

[in] Input Cc1cc2c(C)c3cc(C)c(N)cc3nc2cc1N
[out] active

[in] Again, but for COc1cc(-c2cc(/C=C3\C(=O)Nc4ccc(Cl)cc43)[nH]n2)cc(OC)c1OC
[out] active

[in] What about this compound? O=C(Nc1ccncc1)C(=O)c1cn(S(=O)(=O)c2ccc(F)cc2)c2ccccc12
[out] inactive
